Cited source: patent US20120270915A1

experimentalSystem: EP4 receptor (Homo sapiens, UniProt P35408)
Sequence (P35408 whole entry): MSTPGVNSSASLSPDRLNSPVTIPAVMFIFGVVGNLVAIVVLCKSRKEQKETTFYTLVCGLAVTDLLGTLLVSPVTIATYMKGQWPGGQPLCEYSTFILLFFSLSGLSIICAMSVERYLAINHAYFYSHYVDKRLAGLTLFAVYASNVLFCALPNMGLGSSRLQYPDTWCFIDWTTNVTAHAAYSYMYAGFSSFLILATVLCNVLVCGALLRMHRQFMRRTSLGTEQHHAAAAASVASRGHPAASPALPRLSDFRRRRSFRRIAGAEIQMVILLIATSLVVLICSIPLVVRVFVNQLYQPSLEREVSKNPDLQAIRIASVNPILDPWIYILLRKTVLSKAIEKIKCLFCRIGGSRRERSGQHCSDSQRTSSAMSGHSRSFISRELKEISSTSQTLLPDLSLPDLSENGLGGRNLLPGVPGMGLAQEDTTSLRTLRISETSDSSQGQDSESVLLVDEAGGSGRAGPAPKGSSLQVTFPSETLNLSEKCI
assayDetails: Prostanoid receptor antagonism (FLIPR), EP4
Assay type: cell-based
studyConditions: Table 1
Each entry below lists one item and its recorded Kb value.

compound	experimentalSystem	Kb
COc1ccc(CCC(=O)NS(=O)(=O)C(F)(F)F)c(CN2CCC[C@H]2c2nc(C(=O)NCCCCC3CCCCC3)co2)c1 [Example 12c]	EP4 receptor (Homo sapiens, UniProt P35408)	10 nM
CCCCCCCCNC(=O)c1coc([C@@H]2CCCN2Cc2cc(OC)ccc2CCC(=O)NS(=O)(=O)C(F)(F)F)n1 [Example 12f]	EP4 receptor (Homo sapiens, UniProt P35408)	20 nM
O=C(CCc1ccc(Cl)cc1CN1CCC[C@H]1c1nc(C(=O)NCCCCC2CCCCC2)co1)NS(=O)(=O)C(F)(F)F [Example 12b]	EP4 receptor (Homo sapiens, UniProt P35408)	40 nM
O=C(CCc1cc2c(cc1CN1CCC[C@H]1c1nc(C(=O)NCCCCC3CCCCC3)co1)OCO2)NS(=O)(=O)C(F)(F)F [Example 12d]	EP4 receptor (Homo sapiens, UniProt P35408)	7 nM
O=C(CCc1ccc(F)cc1CN1CCC[C@H]1c1nc(C(=O)NCCCCC2CCCCC2)co1)NS(=O)(=O)C(F)(F)F [Example 12a]	EP4 receptor (Homo sapiens, UniProt P35408)	40 nM

Here's the next entry for you.
# input Would you mind telling me what Kb value was observed for CCCCCCCCNC(=O)c1coc([C@@H]2CCCN2Cc2cc(F)ccc2CCC(=O)NS(=O)(=O)C(F)(F)F)n1 [Example 12e] ?
# output 20 nM
